tested.system: MERS Mpro (Middle East respiratory syndrome-related coronavirus, UniProt K9N7C7)
Sequence (K9N7C7 3248-3553 limits assumed): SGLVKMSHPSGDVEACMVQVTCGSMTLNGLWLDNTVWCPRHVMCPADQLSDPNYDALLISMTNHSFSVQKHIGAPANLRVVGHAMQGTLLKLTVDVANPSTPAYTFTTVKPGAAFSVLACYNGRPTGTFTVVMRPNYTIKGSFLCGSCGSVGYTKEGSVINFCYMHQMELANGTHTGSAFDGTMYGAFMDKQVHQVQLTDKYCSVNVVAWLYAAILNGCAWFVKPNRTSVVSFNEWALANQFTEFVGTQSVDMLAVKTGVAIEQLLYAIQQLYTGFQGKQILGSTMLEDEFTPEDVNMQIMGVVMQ
assay: biochemical
Design: species or system MERS-CoV
reported.property: pIC50
Note on pIC50: it is the negative log10 of concentration, concentration in mol/L.

[
  {
    "molecule": "O=C[C@H](C[C@@H]1CCNC1=O)NC(=O)[C@@H]1[C@H]2CCC[C@H]2CN1C(=O)COc1ccc(Cl)cc1Cl [Compound 63]",
    "reading": 6.42
  }
]

Task: Which value of pIC50 has been reported for CO[C@@H]1C[C@@H](C(=O)N[C@H](C=O)C[C@@H]2CCNC2=O)N(C(=O)c2cc3ccccc3[nH]2)C1 [Compound 121] in the records?
Output: 5.58

Task: Continue with N#Cc1cccc2[nH]c(C(=O)N3CC4(CC4)C[C@H]3C(=O)N[C@H](C=O)C[C@@H]3CCNC3=O)cc12 [Compound 76]
Output: 6.70

---

tested.system: HCoV-NL63 Mpro (Human coronavirus NL63, UniProt P0C6X5)
Sequence (P0C6X5 2940-3242 limits assumed): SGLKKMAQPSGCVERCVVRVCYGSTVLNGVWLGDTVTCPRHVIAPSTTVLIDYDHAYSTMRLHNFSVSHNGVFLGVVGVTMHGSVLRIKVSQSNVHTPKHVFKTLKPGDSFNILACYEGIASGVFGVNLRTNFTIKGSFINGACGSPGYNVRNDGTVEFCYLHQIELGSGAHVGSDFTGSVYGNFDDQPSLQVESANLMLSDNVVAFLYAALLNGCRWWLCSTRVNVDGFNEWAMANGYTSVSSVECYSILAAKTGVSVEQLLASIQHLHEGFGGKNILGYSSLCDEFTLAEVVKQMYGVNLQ
assay: HCoV-NL63 Mpro enzymatic inhibition assay (fluorescence)
Type: biochemical
reported.property: pIC50
Give only the number. pIC50 is defined as minus log10 of concentration in molar units.

Example entries begin here.
[
  {
    "structure.smiles": "CC1(C)C[C@@H](C(=O)N[C@H](C=O)C[C@@H]2CCNC2=O)N(C(=O)c2cc3cccc(F)c3[nH]2)C1",
    "reported.property": "pIC50",
    "reading": 7.04
  },
  {
    "structure.smiles": "CC1(C)[C@@H]2[C@@H](C(=O)N[C@H](C=O)C[C@@H]3CCNC3=O)N(C(=O)c3cc4ccc(F)c(F)c4[nH]3)C[C@@H]21",
    "reported.property": "pIC50",
    "reading": 7.46
  }
]

Field: next compound
Task: Fill blank: measured pIC50 of the compound COc1cc2cc(C(=O)N3C[C@H]4[C@@H]([C@H]3C(=O)N[C@H](C=O)C[C@@H]3CCNC3=O)C4(C)C)[nH]c2cc1OC is ____.
Output: 7.00

---

tested.system: HCoV-HKU1 Mpro (Human coronavirus HKU1, UniProt P0C6X2)
Sequence (P0C6X2 3335-3637 limits assumed): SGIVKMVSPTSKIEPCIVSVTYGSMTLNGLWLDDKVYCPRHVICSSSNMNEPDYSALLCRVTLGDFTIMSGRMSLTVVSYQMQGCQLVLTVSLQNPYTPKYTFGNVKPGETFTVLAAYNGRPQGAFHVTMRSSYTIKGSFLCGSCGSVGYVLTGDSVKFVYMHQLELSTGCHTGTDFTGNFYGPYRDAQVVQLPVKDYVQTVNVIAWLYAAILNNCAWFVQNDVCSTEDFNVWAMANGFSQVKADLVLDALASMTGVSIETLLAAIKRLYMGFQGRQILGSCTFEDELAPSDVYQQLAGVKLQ
assay: HCoV-HKU1 Mpro enzymatic inhibition assay (fluorescence)
Assay type: biochemical
Recorded pIC50 for the following compounds
Please express pIC50 as -log10 of the molar concentration.

# count of solved cases: 3
[
  {
    "structure.smiles": "CO[C@H]1C[C@@H](C(=O)N[C@H](C=O)C[C@@H]2CCNC2=O)N(C(=O)c2cc3ccccc3[nH]2)C1",
    "tested.system": "HCoV-HKU1 Mpro (Human coronavirus HKU1, UniProt P0C6X2)",
    "reported.property": "pIC50",
    "reading": 7.08
  },
  {
    "structure.smiles": "N#C[C@@H]1C[C@@H](C(=O)N[C@H](C=O)C[C@@H]2CCNC2=O)N(C(=O)c2cc3ccccc3[nH]2)C1",
    "tested.system": "HCoV-HKU1 Mpro (Human coronavirus HKU1, UniProt P0C6X2)",
    "reported.property": "pIC50",
    "reading": 6.92
  },
  {
    "structure.smiles": "CC(C)(C(=O)N1C[C@H]2[C@@H]([C@H]1C(=O)N[C@H](C=O)C[C@@H]1CCNC1=O)C2(C)C)c1ccccc1",
    "tested.system": "HCoV-HKU1 Mpro (Human coronavirus HKU1, UniProt P0C6X2)",
    "reported.property": "pIC50",
    "reading": 7.13
  }
]

Now let's try a different one.
Task: Any idea what pIC50 was measured for O=C[C@H](C[C@@H]1CCNC1=O)NC(=O)[C@@H]1C[C@@H]2C[C@@H]2N1C(=O)c1cc2ccccc2[nH]1 ?
Output: 6.81

---

tested.system: HCoV-OC43 Mpro (Human coronavirus OC43, UniProt P0C6X6)
Sequence (P0C6X6 3247-3549 limits assumed): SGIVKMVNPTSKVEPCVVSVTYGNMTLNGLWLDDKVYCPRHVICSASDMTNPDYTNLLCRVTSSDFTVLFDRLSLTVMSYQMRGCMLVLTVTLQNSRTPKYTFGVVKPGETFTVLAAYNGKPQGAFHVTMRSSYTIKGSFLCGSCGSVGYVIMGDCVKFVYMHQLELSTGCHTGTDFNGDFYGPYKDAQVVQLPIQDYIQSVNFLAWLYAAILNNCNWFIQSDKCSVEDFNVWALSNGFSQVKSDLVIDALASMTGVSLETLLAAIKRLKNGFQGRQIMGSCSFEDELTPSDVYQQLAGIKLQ
assay: HCoV-OC43 Mpro enzymatic inhibition assay (fluorescence)
Assay type: biochemical
Lab note: anything with IC50 below 90 nM is marked MET; values at 90 nM or higher are marked NOT MET.

Solved entries:
[
  {
    "structure.smiles": "CC1(C)[C@@H]2[C@@H](C(=O)N[C@H](C=O)C[C@@H]3CCNC3=O)N(C(=O)c3cc4cccc(C(F)(F)F)c4[nH]3)C[C@@H]21",
    "tested.system": "HCoV-OC43 Mpro (Human coronavirus OC43, UniProt P0C6X6)",
    "discrete.label": "MET"
  },
  {
    "structure.smiles": "O=C[C@H](C[C@@H]1CCNC1=O)NC(=O)[C@@H]1CC(F)(F)CN1C(=O)c1cc2ccccc2[nH]1",
    "tested.system": "HCoV-OC43 Mpro (Human coronavirus OC43, UniProt P0C6X6)",
    "discrete.label": "MET"
  },
  {
    "structure.smiles": "Cn1c(C(=O)N2C[C@H]3[C@@H]([C@H]2C(=O)N[C@H](C=O)C[C@@H]2CCNC2=O)C3(C)C)cc2c(F)cccc21",
    "tested.system": "HCoV-OC43 Mpro (Human coronavirus OC43, UniProt P0C6X6)",
    "discrete.label": "NOT MET"
  },
  {
    "structure.smiles": "O=C[C@H](C[C@@H]1CCNC1=O)NC(=O)[C@@H]1[C@H]2CCC[C@H]2CN1C(=O)COc1ccc(Cl)cc1Cl",
    "tested.system": "HCoV-OC43 Mpro (Human coronavirus OC43, UniProt P0C6X6)",
    "discrete.label": "MET"
  }
]

Task: In the record for Cc1ccc(F)c2[nH]c(C(=O)N3C[C@H]4[C@@H]([C@H]3C(=O)N[C@H](C=O)C[C@@H]3CCNC3=O)C4(C)C)cc12 , is IC50 less than 90 nM?
Output: MET

---

tested.system: MERS Mpro (Middle East respiratory syndrome-related coronavirus, UniProt K9N7C7)
assay: biochemical
Design: species or system MERS-CoV
# note: boundary value 300 nM maps to false (0); IC50 below it maps to true (1)

Look over these answered cases.
[
  {
    "compound": "CC(C)c1cccc2[nH]c(C(=O)N3C[C@H]4[C@@H]([C@H]3C(=O)N[C@H](C=O)C[C@@H]3CCNC3=O)C4(C)C)cc12 [Compound 34]",
    "discrete.label": "true (1)"
  },
  {
    "compound": "O=C[C@H](C[C@@H]1CCNC1=O)NC(=O)[C@@H]1C[C@@H]2CCC[C@@H]2N1C(=O)c1cc2ccccc2[nH]1 [Compound 129]",
    "discrete.label": "false (0)"
  },
  {
    "compound": "CC1(C)[C@@H]2[C@@H](C(=O)N[C@H](C=O)C[C@@H]3CCNC3=O)N(C(=O)c3cc4ncccc4[nH]3)C[C@@H]21 [Compound 83]",
    "discrete.label": "false (0)"
  },
  {
    "compound": "CC1(C)[C@@H]2[C@@H](C(=O)N[C@H](C=O)C[C@@H]3CCNC3=O)N(C(=O)CN3CCCCCC3)C[C@@H]21 [Compound 55]",
    "discrete.label": "false (0)"
  },
  {
    "compound": "CC1(C)[C@@H]2[C@@H](C(=O)N[C@H](C=O)C[C@@H]3CCNC3=O)N(C(=O)CC3CCCC(F)(F)C3)C[C@@H]21 (stereo partly drawn) [Compound 22]",
    "discrete.label": "true (1)"
  }
]

Next, consider the following compound.
Task: Field: below-cutoff. Rule: recorded IC50 strictly less than 300 nM. Subject: N#Cc1ccc2cc(C(=O)N3CC4(CC4)C[C@H]3C(=O)N[C@H](C=O)C[C@@H]3CCNC3=O)[nH]c2c1 [Compound 82]
Output: true (1)

---

# IC50 per entry
tested.system: HCoV-229E Mpro (Human coronavirus 229E)
Sequence (P0C6X1 2966-3267 limits assumed): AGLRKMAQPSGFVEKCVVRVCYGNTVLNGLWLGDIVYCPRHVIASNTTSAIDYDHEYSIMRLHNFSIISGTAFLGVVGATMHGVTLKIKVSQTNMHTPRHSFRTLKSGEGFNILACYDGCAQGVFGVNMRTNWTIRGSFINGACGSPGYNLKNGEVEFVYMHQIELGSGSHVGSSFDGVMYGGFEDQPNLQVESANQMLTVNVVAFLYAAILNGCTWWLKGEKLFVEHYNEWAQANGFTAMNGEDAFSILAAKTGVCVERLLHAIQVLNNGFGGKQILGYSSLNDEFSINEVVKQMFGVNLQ
assay: HCoV-229E Mpro enzymatic inhibition assay (fluorescence)
Assay type: biochemical
Only the number, expressed in µM, is required.

Below, 8 compounds whose answers are already recorded.
[
  {
    "structure.smiles": "CC1(C)[C@@H]2[C@@H](C(=O)N[C@H](C=O)C[C@@H]3CCNC3=O)N(C(=O)c3cc4cccc(C(F)(F)F)c4[nH]3)C[C@@H]21",
    "IC50 (µM)": 0.0474
  },
  {
    "structure.smiles": "O=C[C@H](C[C@@H]1CCNC1=O)NC(=O)[C@@H]1[C@H]2CCC[C@H]2CN1C(=O)c1cc2ccccc2[nH]1",
    "IC50 (µM)": 0.0427
  },
  {
    "structure.smiles": "O=C[C@H](C[C@@H]1CCNC1=O)NC(=O)[C@@H]1CC2(CC2)CN1C(=O)c1cc2c(F)cccc2[nH]1",
    "IC50 (µM)": 0.0274
  },
  {
    "structure.smiles": "O=C[C@H](C[C@@H]1CCNC1=O)NC(=O)[C@@H]1CC(F)(F)CN1C(=O)c1cc2ccccc2[nH]1",
    "IC50 (µM)": 0.053
  },
  {
    "structure.smiles": "C[C@H](C(=O)N1C[C@H]2[C@@H]([C@H]1C(=O)N[C@H](C=O)C[C@@H]1CCNC1=O)C2(C)C)c1ccccc1",
    "IC50 (µM)": 0.116
  },
  {
    "structure.smiles": "O=C[C@H](C[C@@H]1CCNC1=O)NC(=O)[C@@H]1CC2(CC2)CN1C(=O)c1cc2cccc(Cl)c2[nH]1",
    "IC50 (µM)": 0.0326
  },
  {
    "structure.smiles": "CC1(C)[C@@H]2[C@@H](C(=O)N[C@H](C=O)C[C@@H]3CCNC3=O)N(C(=O)c3cc4ccc(C#N)cc4[nH]3)C[C@@H]21",
    "IC50 (µM)": 0.0553
  },
  {
    "structure.smiles": "CC1(C)C[C@@H](C(=O)N[C@H](C=O)C[C@@H]2CCNC2=O)N(C(=O)c2cc3cccc(Cl)c3[nH]2)C1",
    "IC50 (µM)": 0.0309
  }
]

Task: What value of IC50 has been reported for the following compound? CC1(C)[C@@H]2[C@@H](C(=O)N[C@H](C=O)C[C@@H]3CCNC3=O)N(C(=O)c3cc4c(Cl)cc(Cl)cc4[nH]3)C[C@@H]21
Output: 0.046

The measurements presented in this section are drawn from patent US20260355212A1.
